Values compiled from the supplement of paper PMC6555819.

Test system: PPARg:RXRa IVT, anti-PPARg (NR concentration 270 nM, RXRa partner concentration 90 nM)
Assay: PBM binding z-score (relative to random genomic background probes); higher = stronger binding; sequences stand for … in GC…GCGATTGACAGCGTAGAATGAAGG
Below: a set of entries, each annotated with reported PBM binding z-score.
READOUT: PBM binding z-score

- CHAIN_SEQUENCE: "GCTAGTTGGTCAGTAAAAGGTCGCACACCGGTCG"
  READOUT: "PBM binding z-score"
  RESULT: 1.32
- CHAIN_SEQUENCE: "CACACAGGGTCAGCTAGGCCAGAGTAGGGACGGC"
  READOUT: "PBM binding z-score"
  RESULT: 2.09
- CHAIN_SEQUENCE: "AGAATGAGGTTAAGATCAGGCAAACAGAATACAT"
  READOUT: "PBM binding z-score"
  RESULT: 2.81
- CHAIN_SEQUENCE: "ATCTCTAGGTAACAAGTTCAGTGACAGAGAGGAC"
  READOUT: "PBM binding z-score"
  RESULT: 3.2
- CHAIN_SEQUENCE: "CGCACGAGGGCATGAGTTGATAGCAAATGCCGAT"
  READOUT: "PBM binding z-score"
  RESULT: 1.02
- CHAIN_SEQUENCE: "GCTAGTTGGTCAGTAAAACGTCACACACCGGTCG"
  READOUT: "PBM binding z-score"
  RESULT: 0.168
- CHAIN_SEQUENCE: "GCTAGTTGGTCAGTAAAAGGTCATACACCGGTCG"
  READOUT: "PBM binding z-score"
  RESULT: 2.38
- CHAIN_SEQUENCE: "CGAAATAGGTCATCCAGGACAGTGAATACATTGA"
  READOUT: "PBM binding z-score"
  RESULT: 7.89
- CHAIN_SEQUENCE: "CCGGCTAGGTCAATGGTCAGCTAAAGCAGCTCGC"
  READOUT: "PBM binding z-score"
  RESULT: 2.61
- CHAIN_SEQUENCE: "CGTCCAACGTCAAAGGTCAGTGAAGAGATGACGG"
  READOUT: "PBM binding z-score"
  RESULT: 1.63
- CHAIN_SEQUENCE: "AGAACGAGGGCAAAGAGTTGATAGCACGGGTGGC"
  READOUT: "PBM binding z-score"
  RESULT: 2.41
- CHAIN_SEQUENCE: "AGTCAAAGTTCAGGACGAGGTAACGTGAAGCACG"
  READOUT: "PBM binding z-score"
  RESULT: 2.06
- CHAIN_SEQUENCE: "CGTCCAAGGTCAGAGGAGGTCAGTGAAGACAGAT"
  READOUT: "PBM binding z-score"
  RESULT: 3.41
- CHAIN_SEQUENCE: "ATCGAAAGGTAGACGAGGTGAGTATACACCGTTT"
  READOUT: "PBM binding z-score"
  RESULT: 0.628
- CHAIN_SEQUENCE: "CAAACTAGGTCACAGAGGTCAAAGTCCGTGCGTA"
  READOUT: "PBM binding z-score"
  RESULT: 9.1
- CHAIN_SEQUENCE: "TTACCAAGGTGAAGGTCATTGATCCCTCTGTAGA"
  READOUT: "PBM binding z-score"
  RESULT: 4.57
- CHAIN_SEQUENCE: "GATACAGGGTCAAGGCGAGAGTACGCGTATTGAT"
  READOUT: "PBM binding z-score"
  RESULT: 3.72
- CHAIN_SEQUENCE: "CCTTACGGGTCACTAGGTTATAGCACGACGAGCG"
  READOUT: "PBM binding z-score"
  RESULT: 5.69
- CHAIN_SEQUENCE: "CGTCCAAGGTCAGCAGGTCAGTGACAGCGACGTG"
  READOUT: "PBM binding z-score"
  RESULT: 3.56
- CHAIN_SEQUENCE: "CAAACTAGGTCAAGGTCAAAGGCGGTTTGTGCCA"
  READOUT: "PBM binding z-score"
  RESULT: 8.69
- CHAIN_SEQUENCE: "ATCTCTAGGTAAGACTCAGTACAGTGAAGAACGC"
  READOUT: "PBM binding z-score"
  RESULT: 1.18
- CHAIN_SEQUENCE: "CCTACTGGGCCAAAGGTAATTGATTCCAATGCTC"
  READOUT: "PBM binding z-score"
  RESULT: 4.68
- CHAIN_SEQUENCE: "CCTATCAGTTGACCATAAGGGCAACCGAAGCTCG"
  READOUT: "PBM binding z-score"
  RESULT: 0.067
- CHAIN_SEQUENCE: "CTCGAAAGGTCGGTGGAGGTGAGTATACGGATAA"
  READOUT: "PBM binding z-score"
  RESULT: 0.827
- CHAIN_SEQUENCE: "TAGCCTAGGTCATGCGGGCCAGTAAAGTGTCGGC"
  READOUT: "PBM binding z-score"
  RESULT: 2.75
- CHAIN_SEQUENCE: "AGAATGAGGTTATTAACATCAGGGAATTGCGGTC"
  READOUT: "PBM binding z-score"
  RESULT: 2.3
- CHAIN_SEQUENCE: "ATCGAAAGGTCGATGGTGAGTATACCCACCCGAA"
  READOUT: "PBM binding z-score"
  RESULT: 0.8
- CHAIN_SEQUENCE: "CATACTGGGTCAGCTAGGCCAGAGTAGGGACGGC"
  READOUT: "PBM binding z-score"
  RESULT: 5.45
- CHAIN_SEQUENCE: "CCTTACGGGTCACTCCAGCTTATAGCATCGGAGT"
  READOUT: "PBM binding z-score"
  RESULT: 2.95
- CHAIN_SEQUENCE: "CCGAGTGGGGCAAGGTTACCATAACGCACAGCCA"
  READOUT: "PBM binding z-score"
  RESULT: 3.14
- CHAIN_SEQUENCE: "CAAACTAGGTTAAGGTCAAAGTCGGTTTGTGCCA"
  READOUT: "PBM binding z-score"
  RESULT: 7.5
- CHAIN_SEQUENCE: "GGGACGAGGGCAAAGTTGATAGCATCTGTCGACG"
  READOUT: "PBM binding z-score"
  RESULT: 3.76
- CHAIN_SEQUENCE: "CGTCCAAGGTCTTAGGAGGTCAGTGAAGACAGAT"
  READOUT: "PBM binding z-score"
  RESULT: 1.31
- CHAIN_SEQUENCE: "TCGAGTAGGTTAGGGGAATTCAGAATGGCGTCGA"
  READOUT: "PBM binding z-score"
  RESULT: 1.78
- CHAIN_SEQUENCE: "CCTCGGAGGACAGAAGGTCAGACCTGTCCGCTTT"
  READOUT: "PBM binding z-score"
  RESULT: 0.0592
- CHAIN_SEQUENCE: "ATATTTAGGTTACATCCGGGTCATTCAGGCTATG"
  READOUT: "PBM binding z-score"
  RESULT: 6.04
- CHAIN_SEQUENCE: "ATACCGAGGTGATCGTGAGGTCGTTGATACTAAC"
  READOUT: "PBM binding z-score"
  RESULT: 1.31
- CHAIN_SEQUENCE: "CCTTCTGGGCCACGAAAGGTCATTGATTCAGTGA"
  READOUT: "PBM binding z-score"
  RESULT: 5.14
- CHAIN_SEQUENCE: "TGAAGGAGGTTAAAGATCAGGGAACGTGGCGTCG"
  READOUT: "PBM binding z-score"
  RESULT: 2.36
- CHAIN_SEQUENCE: "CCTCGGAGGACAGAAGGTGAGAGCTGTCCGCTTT"
  READOUT: "PBM binding z-score"
  RESULT: 0.0317
- CHAIN_SEQUENCE: "GTACCAAGGTGAATAGGTCGTCGATGAGTAGGCG"
  READOUT: "PBM binding z-score"
  RESULT: 2.77
- CHAIN_SEQUENCE: "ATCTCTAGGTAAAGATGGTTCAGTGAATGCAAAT"
  READOUT: "PBM binding z-score"
  RESULT: 1.65
- CHAIN_SEQUENCE: "CTACCAAGGTGAATAAGGTCGTTGATTACTATTC"
  READOUT: "PBM binding z-score"
  RESULT: 2.39
- CHAIN_SEQUENCE: "ATTACAGGGTCATCGTAGGCCAGAGTACGCACAG"
  READOUT: "PBM binding z-score"
  RESULT: 4.43
- CHAIN_SEQUENCE: "ATATGTAGGTTAGCTTGGGTCATTCAGACTAGGC"
  READOUT: "PBM binding z-score"
  RESULT: 5.97
- CHAIN_SEQUENCE: "CCTAGTTGGTTAAGGTCACACACGCTATAGGTAC"
  READOUT: "PBM binding z-score"
  RESULT: 2.5
- CHAIN_SEQUENCE: "CGTCCAAGGTCAATGCTAGGTCAGTAAAAGCATT"
  READOUT: "PBM binding z-score"
  RESULT: 4.08
- CHAIN_SEQUENCE: "CCTATTAGCTGACCATAAGGGCAACCGAAGCTCG"
  READOUT: "PBM binding z-score"
  RESULT: 0.429
- CHAIN_SEQUENCE: "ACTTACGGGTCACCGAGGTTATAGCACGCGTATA"
  READOUT: "PBM binding z-score"
  RESULT: 5.23
- CHAIN_SEQUENCE: "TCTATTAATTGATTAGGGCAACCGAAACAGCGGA"
  READOUT: "PBM binding z-score"
  RESULT: 1.09
- CHAIN_SEQUENCE: "CCTAGTTGGTCAAGGTCACAAACGCTATAGGTAC"
  READOUT: "PBM binding z-score"
  RESULT: 3.73
